- protocol details: Stability of the five analytes in rat plasma
- Type: in vitro ADME
- measurement setup: rat, 2 ng/mL
measured metric: Freeze-thaw stability, Mean (%)

{"compound": "COc1cc(/C=C/C(=O)O[C@H]2[C@H](O)[C@@H](CO)O[C@@]2(CO)O[C@H]2O[C@H](CO)[C@@H](O)[C@H](O)[C@H]2O)ccc1O", "Freeze-thaw stability, Mean, %": 92.1}
{"compound": "COc1cc(C=CC(=O)OCC2OC(OC3(CO)OC(CO)C(O)C3OC(=O)C=Cc3cc(OC)c(O)c(OC)c3)C(O)C(O)C2O)cc(OC)c1O (stereo not shown)", "Freeze-thaw stability, Mean, %": 89.3}
{"compound": "COc1cc(/C=C/C(=O)O[C@H]2[C@H](O)[C@@H](CO)O[C@@]2(CO)O[C@H]2O[C@H](COC(=O)c3ccc(O)cc3)[C@@H](O)[C@H](O)[C@H]2O)cc(OC)c1OC [TFSA, tenuifoliside A]", "Freeze-thaw stability, Mean, %": 96.5}
{"compound": "COc1cc(C=CC(=O)OC2C(O)C(CO)OC2(CO)OC2OC(CO)C(O)C(O)C2O)cc(OC)c1O (stereo not shown)", "Freeze-thaw stability, Mean, %": 92.4}
